Where these numbers come from: patent US20230144824A1

Molecular target: human TLR7 (Homo sapiens, UniProt Q9NYK1)
Sequence (Q9NYK1 27-1049): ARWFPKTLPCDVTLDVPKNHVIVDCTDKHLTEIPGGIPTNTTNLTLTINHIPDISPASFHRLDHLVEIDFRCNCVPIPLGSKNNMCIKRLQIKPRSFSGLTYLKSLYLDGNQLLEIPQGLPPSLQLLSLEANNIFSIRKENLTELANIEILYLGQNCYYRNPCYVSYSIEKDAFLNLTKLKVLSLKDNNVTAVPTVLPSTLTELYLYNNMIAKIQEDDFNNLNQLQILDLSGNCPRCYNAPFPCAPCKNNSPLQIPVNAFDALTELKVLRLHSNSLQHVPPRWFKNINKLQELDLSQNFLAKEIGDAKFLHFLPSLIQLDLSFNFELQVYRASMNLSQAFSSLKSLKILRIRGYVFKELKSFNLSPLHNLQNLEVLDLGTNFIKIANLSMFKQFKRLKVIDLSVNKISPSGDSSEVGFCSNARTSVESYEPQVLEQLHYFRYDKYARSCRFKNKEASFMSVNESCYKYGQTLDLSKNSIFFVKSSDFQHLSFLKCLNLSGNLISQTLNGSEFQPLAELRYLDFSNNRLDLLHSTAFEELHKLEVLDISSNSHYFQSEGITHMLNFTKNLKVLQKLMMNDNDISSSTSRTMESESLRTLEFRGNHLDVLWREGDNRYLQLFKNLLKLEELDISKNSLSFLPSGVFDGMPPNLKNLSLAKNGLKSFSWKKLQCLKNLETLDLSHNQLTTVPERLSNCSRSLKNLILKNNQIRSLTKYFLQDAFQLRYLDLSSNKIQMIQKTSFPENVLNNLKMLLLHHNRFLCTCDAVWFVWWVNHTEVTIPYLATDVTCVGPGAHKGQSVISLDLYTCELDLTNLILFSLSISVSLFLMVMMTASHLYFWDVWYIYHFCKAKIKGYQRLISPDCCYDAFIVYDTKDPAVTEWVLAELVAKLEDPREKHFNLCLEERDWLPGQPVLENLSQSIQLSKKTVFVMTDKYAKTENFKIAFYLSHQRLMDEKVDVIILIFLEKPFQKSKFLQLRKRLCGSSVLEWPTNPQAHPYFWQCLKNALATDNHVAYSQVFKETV
Assay: Human TLR7 agonist activity assay (HEK-Blue TLR7 SEAP reporter)
Conditions: HEK-Blue TLR7 cells, 18 h treatment, average where assay performed multiple times, read-out: hTLR7 Agonism EC50
test readout: EC50
Hi, when you answer, please include the unit after the number. Thanks!

# query: EC50 | item "CCCCNc1nc(N)nc2cnn(Cc3ncc(C4CCN(C(=O)CN(C)C)CC4)cc3OC)c12" | system: human TLR7 (Homo sapiens, UniProt Q9NYK1)
48.4 nM

# query: EC50 | item CCC[C@@H](CCO)Nc1nc(N)nc2cnn(Cc3ccc(C4CN(C(C)C)CCN4)cc3OC)c12 (stereo partly shown) [Compound 184] | system: human TLR7 (Homo sapiens, UniProt Q9NYK1)
6.5 nM

# query: EC50 | item "CCCCNc1nc(N)nc2cnn(Cc3ncc(C4CCN(C(=O)CCN(C)C)CC4)cc3OC)c12" | system: human TLR7 (Homo sapiens, UniProt Q9NYK1)
215 nM

# query: EC50 | item "CCCCNc1nc(N)nc2cnn(Cc3ccc(C4CCN(C)CC4)cc3OC)c12" | system: human TLR7 (Homo sapiens, UniProt Q9NYK1)
5 nM

# query: EC50 | item "CCCCNc1nc(N)nc2cnn(Cc3ncc(C4CCN(CC(C)(C)O)CC4)cc3OC)c12" | system: human TLR7 (Homo sapiens, UniProt Q9NYK1)
28.5 nM

# query: EC50 | item "CCC[C@@H](CCO)Nc1nc(N)nc2c(C)nn(Cc3cnc(C4CCNCC4)cc3OC)c12" | system: human TLR7 (Homo sapiens, UniProt Q9NYK1)
57.1 nM

# query: EC50 | item "CCC[C@@H](CCO)Nc1nc(N)nc2cnn(Cc3ncc(C4CCN(C5COC5)CC4)cc3OC)c12" | system: human TLR7 (Homo sapiens, UniProt Q9NYK1)
7.6 nM
